- System Name: smooth muscle angiotensin II receptor
- Procedure Summary: Assay A: Angiotensin II Binding Activity
- Assay Setup: rat uterine membranes, 25° C., 60 min; read-out: Assay A IC50 (50% displacement of specifically bound 125I-AII)
Measured Quantity: pIC50
In textbook form, pIC50 equals minus log to base ten of the concentration in mol/L.

Data request: What does the data say about its pIC50? Entry: CCCCc1nc(Cl)c(CO)n1Cc1ccc(-c2ccccc2C(=O)O)cc1
Data returned: 6.67
